- targetUnderTest: EGLN1
- experiment: cell-based or functional assay
Where no end group is shown, it is not given here. [ ]: non-standard residue; d: D form. ΔPro = O=C(O)[C@@H]1C=CCN1; Aze = O=C(O)[C@@H]1CCN1
recordedEndpoint: Activity (%)*
Give bare numbers, in %.

// worked examples, Activity (%)* included
binder: DTDLDTEAFA[Aze]YIPADDDFQ [DTDLDTEAFA8YIPADDDFQ]
reportedMeasurement: 17.4

binder: DTDLDIEAIA[Aze]YIPADDDFQ [DTDLDIEAIA8YIPADDDFQ]
reportedMeasurement: 18.3

binder: DTDLDAEATA[Aze]YIPADDDFQ [DTDLDAEATA8YIPADDDFQ]
reportedMeasurement: 7.6

binder: DTDLDAEAIA[Aze]YIPADDDFQ [DTDLDAEAIA8YIPADDDFQ]
reportedMeasurement: 6.68

binder: DTDLDAEAAA[Aze]YIPADDDFQ [DTDLDAEAAA8YIPADDDFQ]
reportedMeasurement: 10.3

Look at each binder and report its Activity (%)*.
1. DTDLDAEAVA[Aze]YIPADDDFQ [DTDLDAEAVA8YIPADDDFQ]
2. DTDLDVEAIA[Aze]YIPADDDFQ [DTDLDVEAIA8YIPADDDFQ]
3. DTDLDLEALA[ΔPro]YIPADDDFQ [DTDLDLEALA4YIPADDDFQ]
4. DTDLDTEAYA[Aze]YIPADDDFQ [DTDLDTEAYA8YIPADDDFQ]
5. DTDLDVEAYA[Aze]YIPADDDFQ [DTDLDVEAYA8YIPADDDFQ]
6. DTDLDVEAFA[Aze]YIPADDDFQ [DTDLDVEAFA8YIPADDDFQ]
7. DTDLDLEALA[b‑thioproline]YIPADDDFQ [DTDLDLEALA5YIPADDDFQ]
8. DTDLDTEALA[Aze]YIPADDDFQ [DTDLDTEALA8YIPADDDFQ]

(A)
1: 10; 2: 7.96; 3: 124; 4: 25.1; 5: 32.3; 6: 21.2; 7: 8.93; 8: 11.4

Look at each binder and report its Activity (%)*.
1. DTDLDLEMLAPYIPMDDDFQ [Control peptide DTD20, DTDLDLEMLApYIPMDDDFQ]
2. DTDLDLEALA[Aze]YIPADDDFQ [DTDLDLEALA8YIPADDDFQ]
3. DTDLDIEAVA[Aze]YIPADDDFQ [DTDLDIEAVA8YIPADDDFQ]

(A)
1: 100; 2: 78.9; 3: 6.35
